pKi: −log10 of the molar value.
pKi, human σ1 receptor (Homo sapiens), per-entry values.

Some compounds with known pKi results, for comparison:
Hi! What's the reported pKi for "CN(C)c1ccc(S(=O)(=O)N[C@H]2CCN(Cc3ccccc3)C2)cn1" on human σ1 receptor (Homo sapiens)?
> 7.00

Hi! What's the reported pKi for "COC1CCN(c2ccc(S(=O)(=O)N[C@@H]3CCN(Cc4ccccc4)C3)cn2)CC1" on human σ1 receptor (Homo sapiens)?
6.00 to 6.30

Hi! What's the reported pKi for "CC(C)(C)CCN1CCCC2(CCN(S(=O)(=O)c3ccc(N4CCOC4=O)nc3)CC2)C1" on human σ1 receptor (Homo sapiens)?
> 7.00

Then this compound:
Hi! What's the reported pKi for "O=S(=O)(c1ccc(N2CCC(F)(F)CC2)nc1)N1CCC2(CCN(CC3CCOCC3)CC2)C1" on human σ1 receptor (Homo sapiens)?
> 7.00

====

# Ki per record follows
TARGET_OR_TEST_SYSTEM: human σ2/TMEM97 receptor (Homo sapiens, UniProt Q5BJF2)
Sequence (Q5BJF2 whole entry): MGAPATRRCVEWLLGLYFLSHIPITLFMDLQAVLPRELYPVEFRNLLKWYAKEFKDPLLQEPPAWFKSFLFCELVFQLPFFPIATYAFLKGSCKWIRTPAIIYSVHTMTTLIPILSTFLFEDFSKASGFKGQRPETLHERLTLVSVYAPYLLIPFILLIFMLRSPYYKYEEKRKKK
EXPERIMENT_NOTES: Binding assay to human σ2/TMEM97 receptor
SETTINGS: transfected HEK-293 membranes, 10 nM [3H]-DTG, 25° C. 120 minutes; + may also stand for 1-50% inhibition at 1 or 10 μM; read-out: Binding σ-2 Ki

Some compounds with known Ki results, for comparison:
# lookup: Ki of "CN(C)c1ccc(S(=O)(=O)N[C@@H]2CCN(Cc3ccccc3)C2)cn1"
> 1000 nM

# lookup: Ki of "N#Cc1ccc(CN2CCCC3(CCN(S(=O)(=O)c4ccc(N5CCOC5=O)nc4)CC3)C2)cc1F"
< 100 nM

# lookup: Ki of "CN(CC(C)(C)C)C1CCN(S(=O)(=O)c2ccc(N3CCC(F)(F)CC3)nc2)CC1"
< 100 nM

# lookup: Ki of "CN(CC1CCOCC1)C1CCN(S(=O)(=O)c2ccc(N3CCOC3=O)nc2)CC1"
100 to 500 nM

# lookup: Ki of "O=C1OCCN1c1ccc(S(=O)(=O)N2CCC3(CCCN(CC4CCOCC4)C3)CC2)cn1"
100 to 500 nM

# lookup: Ki of "CC(C)CCN1CCCC2(CCN(S(=O)(=O)c3ccc(N4CCC(F)(F)CC4)nc3)CC2)C1"
< 100 nM

---
# lookup: Ki of "CC(C)CN1CCC2(CC1)CCN(S(=O)(=O)c1ccc(C(F)(F)F)nc1)CC2"
< 100 nM

# lookup: Ki of "O=C1OCCN1c1ccc(S(=O)(=O)N2CCCC3(CCN(CC4CCOCC4)CC3)C2)nc1"
< 100 nM

# lookup: Ki of "CN(Cc1ccccc1)[C@H]1CC[C@H](NS(=O)(=O)c2ccc(N3CCOC3=O)nc2)CC1"
100 to 500 nM

# lookup: Ki of "O=S(=O)(c1ccc(N2CCOCC2)nc1)N1CCC[C@@H](CNCc2ccc(O)nc2)C1"
100 to 500 nM

# lookup: Ki of "CCC(=O)N(C)c1ccc(S(=O)(=O)N2CCCC3(CCN(CCC(C)(C)C)CC3)C2)cn1"
< 100 nM

====

# pKi per record follows
TARGET_OR_TEST_SYSTEM: human σ2/TMEM97 receptor (Homo sapiens, UniProt Q5BJF2)
EXPERIMENT_NOTES: Binding assay to human σ2/TMEM97 receptor
SETTINGS: transfected HEK-293 membranes, 10 nM [3H]-DTG, 25° C. 120 minutes; + may also stand for 1-50% inhibition at 1 or 10 μM; read-out: Binding σ-2 Ki
pKi: −log10 of the molar value.

Some compounds with known pKi results, for comparison:
Hi! What's the reported pKi for "CC(C)(C)CCN1CCCC2(CCN(S(=O)(=O)c3ccc(N4CCOC4=O)nc3)CC2)C1" on human σ2/TMEM97 receptor (Homo sapiens, UniProt Q5BJF2)?
> 7.00

Hi! What's the reported pKi for "N#Cc1cc(CN[C@H]2CC[C@H](NS(=O)(=O)c3ccc(N4CCOCC4)nc3)CC2)ccc1F" on human σ2/TMEM97 receptor (Homo sapiens, UniProt Q5BJF2)?
6.30 to 7.00

Hi! What's the reported pKi for "CC(C)(C)CCN1CCC2(CC1)CCN(S(=O)(=O)c1ccc(N3CCOC3=O)nc1)CC2" on human σ2/TMEM97 receptor (Homo sapiens, UniProt Q5BJF2)?
> 7.00

Hi! What's the reported pKi for "CC(C)(C)CCN1CCC2(CC1)CCN(S(=O)(=O)c1ccc(N3CCC4(CC3)COC4)nc1)CC2" on human σ2/TMEM97 receptor (Homo sapiens, UniProt Q5BJF2)?
> 7.00

Hi! What's the reported pKi for "CC(C)(C)CN1CCCC2(CCN(S(=O)(=O)c3ccc(N4CCC(F)(F)CC4)nc3)CC2)C1" on human σ2/TMEM97 receptor (Homo sapiens, UniProt Q5BJF2)?
6.00 to 6.30

Then this compound:
Hi! What's the reported pKi for "CC(C)(C)CN1CCCC2(CCN(S(=O)(=O)c3ccc(N4CCOC4=O)nc3)CC2)C1" on human σ2/TMEM97 receptor (Homo sapiens, UniProt Q5BJF2)?
< 6.00

====

TARGET_OR_TEST_SYSTEM: human σ2/TMEM97 receptor (Homo sapiens)
EXPERIMENT_NOTES: Binding assay to human σ2/TMEM97 receptor
SETTINGS: transfected HEK-293 membranes, 10 nM [3H]-DTG, 25° C. 120 minutes; + may also stand for 1-50% inhibition at 1 or 10 μM; read-out: Binding σ-2 Ki
pKi: −log10 of the molar value.
QUANTITY: pKi

Some molecules with known pKi results, for comparison:
# lookup: pKi of "CN(Cc1ccc(C#N)cc1F)C1CCN(S(=O)(=O)c2ccc(N3CCC(F)(F)CC3)nc2)CC1"
> 7.00

# lookup: pKi of "CC(C)(C)CCN1CCCC2(CCN(S(=O)(=O)c3ccc(N4CCC(F)(F)CC4)nc3)CC2)C1"
> 7.00

# lookup: pKi of "CN(Cc1ccccc1)[C@H]1CC[C@@H](NS(=O)(=O)c2ccc(N3CCOCC3)nc2)CC1"
> 7.00

# lookup: pKi of "O=S(=O)(N[C@H]1CC[C@H](NCc2ccccc2)CC1)c1ccc(N2CCOCC2)nc1"
6.30 to 7.00

# lookup: pKi of "CN(Cc1ccc(C#N)c(F)c1)C1CCN(S(=O)(=O)c2ccc(N3CCC(F)(F)CC3)nc2)CC1"
> 7.00

---
# lookup: pKi of "CC(C)(C)CCN1CCC2(CC1)CCN(S(=O)(=O)c1cnc(N3CCCC3=O)c(F)c1)CC2"
> 7.00

# lookup: pKi of "CCc1ccc(S(=O)(=O)N2CCC3(CCN(CCC(C)(C)C)CC3)CC2)cn1"
> 7.00

# lookup: pKi of "O=C1OCCN1c1ccc(S(=O)(=O)N2CCC3(CCN(Cc4ccccc4F)CC3)CC2)cn1"
> 7.00

# lookup: pKi of "CC(C)(C)CCN1CCC2(CC1)CCN(S(=O)(=O)c1ccc(C3CCOCC3)nc1)CC2"
> 7.00

# lookup: pKi of "O=S(=O)(c1ccc(N2CCC(F)(F)CC2)nc1)N1CCC2(CCN(Cc3ccccc3)CC2)C1"
> 7.00

# lookup: pKi of "CC(=O)N(C)c1ccc(S(=O)(=O)N2CCCC3(CCN(CCC(C)(C)C)CC3)C2)cn1"
> 7.00

====

TARGET_OR_TEST_SYSTEM: human σ2/TMEM97 receptor (Homo sapiens, UniProt Q5BJF2)
EXPERIMENT_NOTES: Binding assay to human σ2/TMEM97 receptor
SETTINGS: transfected HEK-293 membranes, 10 nM [3H]-DTG, 25° C. 120 minutes; + may also stand for 1-50% inhibition at 1 or 10 μM; read-out: Binding σ-2 Ki
QUANTITY: Ki

Some molecules with known Ki results, for comparison:
# lookup: Ki of CN(Cc1ccccc1F)[C@H]1CC[C@H](NS(=O)(=O)c2ccc(N3CCOCC3)nc2)CC1 [Example 56]
< 0.1 µM

# lookup: Ki of COc1ccc(CNC[C@@H]2CCCN(S(=O)(=O)c3ccc(N4CCOCC4)nc3)C2)cn1 [Example 34]
< 0.1 µM

# lookup: Ki of O=C1OCCN1c1ccc(S(=O)(=O)N2CCC3(CCCN(Cc4cc(F)ccc4F)C3)CC2)cn1 [Example 146]
0.5 to 1 µM

# lookup: Ki of CC(C)(C)CN1CCC2(CC1)CCN(S(=O)(=O)c1ccc(N3CCOC3=O)nc1)CC2 [Example 143]
< 0.1 µM

# lookup: Ki of O=S(=O)(N[C@H]1CC[C@H](NCc2ccncc2)CC1)c1ccc(N2CCOCC2)nc1 [Example 55]
> 1 µM

---
# lookup: Ki of CC(C)(C)CCN1CCC2(CC1)CCN(S(=O)(=O)c1ccc(N3CCOCC3)nc1)CC2 [Example 29]
< 0.1 µM

# lookup: Ki of CN(CC1CCOCC1)[C@H]1CC[C@H](NS(=O)(=O)c2ccc(N3CCC4(CCCO4)CC3)nc2)CC1 [Example 177]
< 0.1 µM

# lookup: Ki of CC(C)(C)CCN1CCC2(CC1)CCN(S(=O)(=O)c1ccc(-c3ccncc3)nc1)C2 [Example 114]
< 0.1 µM

# lookup: Ki of O=C1OCCN1c1ccc(S(=O)(=O)N2CCC3(CCN(Cc4cc(F)ccc4F)CC3)CC2)cn1 [Example 156]
< 0.1 µM

# lookup: Ki of CN(Cc1ccccc1)[C@H]1CC[C@H](NS(=O)(=O)c2ccc(N3CCC(F)(F)CC3)nc2)CC1 [Example 175]
< 0.1 µM

# lookup: Ki of N#Cc1cc(CN2CCC3(CCCN(S(=O)(=O)c4ccc(N5CCOC5=O)nc4)C3)CC2)ccc1F [Example 161]
< 0.1 µM

# lookup: Ki of CC(C)(C)CCN1CCC2(CCCN(S(=O)(=O)c3ccc(N4CCOCC4)nc3)C2)CC1 [Example 88]
< 0.1 µM

# lookup: Ki of O=S(=O)(NC1CCN(Cc2ccc(F)cc2)CC1)c1ccc(N2CCOCC2)nc1 [Example 7]
> 1 µM

# lookup: Ki of Cc1ccc(S(=O)(=O)N2CCCC3(CCN(CCC(C)(C)C)CC3)C2)cn1 [Example 108]
< 0.1 µM

# lookup: Ki of CC(C)CCN1CCC2(CC1)CCN(S(=O)(=O)c1ccc(N3CCC(F)(F)CC3)nc1)CC2 [Example 73]
< 0.1 µM

# credit: patent US20240254115A1
